Molecular target: Recombinant human Met (c-Met) (Homo sapiens, UniProt P08581)
Construct: purchased Invitrogen PV3143
Sequence (P08581 956-1390 limits assumed): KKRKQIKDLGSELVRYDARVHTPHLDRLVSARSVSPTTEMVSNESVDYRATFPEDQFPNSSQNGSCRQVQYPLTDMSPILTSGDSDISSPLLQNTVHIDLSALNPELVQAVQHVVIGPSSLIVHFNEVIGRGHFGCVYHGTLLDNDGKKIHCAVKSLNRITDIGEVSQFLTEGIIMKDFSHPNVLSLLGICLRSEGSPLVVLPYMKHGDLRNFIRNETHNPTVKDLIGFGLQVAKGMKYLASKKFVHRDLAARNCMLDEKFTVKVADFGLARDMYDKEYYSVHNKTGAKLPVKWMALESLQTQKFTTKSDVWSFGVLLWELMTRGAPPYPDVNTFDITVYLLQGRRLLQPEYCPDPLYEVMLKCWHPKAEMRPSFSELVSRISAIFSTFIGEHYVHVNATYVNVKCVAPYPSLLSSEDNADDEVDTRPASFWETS
Assay: Inhibition of c-Met kinase activity using Transcreener FP assay
Assay type: biochemical
Settings: Poly E4Y substrate, 28° C. 45 min, read-out: IC50, inhibition of c-Met kinase activity
Reported values of IC50 for individual entries

Recorded IC50 (compound O=Cc1cnn2ccc(Cn3nnc4ncc(-c5cnn(CCO)c5)nc43)cc12 ): 1 to 100 nM

Value of IC50 reported for the compound OC1COCC1Nc1ccnc(Nc2cnc3nnn(Cc4ccc5ncccc5c4)c3n2)c1 (stereo not drawn) is 1 to 100 nM

Value of measured IC50 for the entry c1cnc2[nH]cc(Cn3nnc4ccc(-c5cnn(C6CCNCC6)c5)nc43)c2c1 : 100 to 1000 nM

The reported value for COc1ccc(Nc2cnc3nnn(Cc4ccc5ncccc5c4)c3n2)cn1 in terms of IC50 is 1 to 100 nM

The value of IC50 measured for the compound c1cnc2ccc(Cn3nnc4ccc(-c5cnn(C6CCNCC6)c5)nc43)cc2c1 turned out to be 100 to 1000 nM

# IC50 (compound: COCCn1cc(-c2cnc3nnn(Cc4ccn5nccc5c4)c3n2)cn1 ) is 1 to 100 nM

// sample FC(F)(F)Cn1cc(-c2ccc3nnn(Cc4ccc5nccn5c4)c3n2)cn1 , its IC50 was 1 to 100 nM

// IC50 lookup, compound = COCCn1cc(-c2ccc3nnn(Cc4c[nH]c5ncccc45)c3n2)cn1 , result: 1 to 100 nM

IC50 recorded for this compound, CNC(=O)c1cncc(Nc2cnc3nnn(Cc4ccc5ncccc5c4)c3n2)c1 , is 1 to 100 nM

According to the records, this compound Cn1cc(Nc2cnc3nnn(Cc4ccc5ncccc5c4)c3n2)cn1 displays IC50 of 1 to 100 nM

Record summary for Cn1cc(-c2cnc3nnn(Cc4ccc5ncc(CN6CCOCC6)n5c4)c3n2)cn1 : reported IC50 = 100 to 1000 nM

Value of measured IC50 for the entry OCCn1cc(-c2cnc3nnn(Cc4ccn5nccc5n4)c3n2)cn1 : 100 to 1000 nM

Looking up c1cnc2ccc(Cn3nnc4ccc(-n5ccnc5)nc43)cc2c1 , I found its IC50 recorded as 1 to 100 nM
